Molecular target: T1, full-length trimeric SARS-CoV-2 Spike protein (Spike-H6) (SARS-CoV-2, N-glycosylated (22 N-glycosylation sites))
T1 construct: also called trimeric Spike; full-length Spike-H6
Test: ELISA screen
binders and their reported Mean normalized OD
Numbers only here, please. The scale is OD.

As a guide, the following entries are already answered.
BINDER	UNIT ABBREV	Mean normalized OD
Klri1 CRD-mouse IgG2a-Fc fusion protein (Fc fusion) FGNNFYCVFKENTKTWAESQSACEELNSHLVIIDSKAEVENLLLFEMDGWILHKMDGTNSSWLWRNDIKIQNTLTNDSEKKNHSCHYLRGNLFMPDECSAKKSYICEGGGSGGGSGGGS	OD	0.002
Ly75_9 CRD-mouse IgG2a-Fc fusion protein (Fc fusion) YKDGVYSVIQKKVTWYEALNACSQSGGELASVHNPNGKLFLEDIVNRDGFPLWVGLSSHDGSESSFEWSDGRAFDYVPWQSLQSPGDCVVLYPKGIWRREKCLSVKDGAICYKGGGSGGGSGGGS	OD	0.001
Cd209e CRD-mouse IgG2a-Fc fusion protein (Fc fusion) FFNGNCYFFSKSQRDWHDSMTACKEMGAQLVIIKSHEEQSFLQQTSKKNSYTWMGLSDLNKEGEWYWLDGSPLSDSFEKYWKKGQPNNVGGQDCVEFRDNGWNDAKCEQRKFWICKGGGSGGGSGGGS	OD	0.045

--- query ---
Consider the binder Clec2g CRD-mouse IgG2a-Fc fusion protein (Fc fusion) VGNKCFYFSEYTSNWTFAQTFCMAQEAQLARFDNEKELNFLMRYKANFDSWIGLHRESSEHPWKWTDNTEYNNMIPIQGVETCAYLSGNGISSSRHYIPRIWICSGGGSGGGSGGGS . State its measured Mean normalized OD.
-0.241
